- Tested on: Fibroblast
- experimental-details: Multiplex assay against human fibroblast
- Assay type: toxicity, cell-based
- condition-label: 12 h, 1 µM, compound concentration 1 uM, replicate 1
# Population Tubulin-Different-Phenotype (%) per record follows
measured-quantity: Population Tubulin-Different-Phenotype (%)

{"compound": "CCn1cc(-c2ccnc3[nH]c(-c4cccc(CN(C)C)c4)cc23)c(-c2ccc(NC(=O)N(C)C)cc2)n1", "measurement-unit": "%", "measured-result": 5}
{"compound": "Cc1cn(-c2cc(NC(=O)c3ccc(C)c(Nc4nccc(-c5cccnc5)n4)c3)cc(C(F)(F)F)c2)cn1", "measurement-unit": "%", "measured-result": 83}
{"compound": "CN1C2CCC1CC(OC(c1ccc(F)cc1)c1ccc(F)cc1)C2.Cl (centres undefined)", "measurement-unit": "%", "measured-result": 52}
{"compound": "CCN1CCN(c2ccc(Nc3cc(N(C)C(=O)Nc4c(Cl)c(OC)cc(OC)c4Cl)ncn3)cc2)CC1", "measurement-unit": "%", "measured-result": 23}
